This collection of values is drawn from patent US20240415914A1.

Assay details: Stability of cannabinoid and Vitamin E components of Beverage 2 (AB Red) stored at 8° C. and 21-25° C., LCMSMS over 570 days
Test context: 21-25° C., 210 days
Measure: Stability of Cannabinoids in AB Red (µg/mL)
Please respond with the number in µg/mL and leave the unit unwritten.

# Molecule, Units, Stability of Cannabinoids in AB Red
rows = [
    ("CCCCCc1cc(O)c2c(c1)OC(C)(C)[C@@H]1CCC(C)=C[C@@H]21 [D9 THC, delta-9-tetrahydrocannabinol, reference compound]", "µg/mL", 12.4),
    ("C=C(C)[C@@H]1CCC(C)=C[C@H]1c1c(O)cc(CCCCC)c(C(=O)O)c1O", "µg/mL", 1.64),
    ("CCCc1cc(O)c2c(c1)OC(C)(C)[C@@H]1CCC(C)=C[C@@H]21 [THCV, delta-9-tetrahydrocannabivarin]", "µg/mL", 3.03),
    ("C=C(C)[C@@H]1CCC(C)=C[C@H]1c1c(O)cc(CCC)cc1O", "µg/mL", 0.19),
    ("CCCCCc1cc(O)c2c(c1)OC(C)(C)c1ccc(C)cc1-2", "µg/mL", 2.70),
]

Q. Recorded Stability of Cannabinoids in AB Red of CCCCCc1cc(O)c2c(c1)OC1(C)CCC3C1C2C3(C)C (stereo not drawn) , please.
A. 0.49

Q. Try CCCCCc1cc(O)c2c(c1)OC(C)(CCC=C(C)C)C=C2 (stereo not drawn) next.
A. 0.29

Q. Try CCCCCc1cc2c(c(O)c1C(=O)O)[C@@H]1C=C(C)CC[C@H]1C(C)(C)O2 [D9 THCA, delta-9-tetrahydrocannabinolic acid] next.
A. 1.33

Q. Try CCCCCc1cc(O)c(C/C=C(\C)CCC=C(C)C)c(O)c1 next.
A. 4.63
